Below are Ki measurements against 5-hydroxytryptamine receptor 1A (Rattus norvegicus, UniProt P19327) drawn from the literature.
Sequence (P19327 whole entry): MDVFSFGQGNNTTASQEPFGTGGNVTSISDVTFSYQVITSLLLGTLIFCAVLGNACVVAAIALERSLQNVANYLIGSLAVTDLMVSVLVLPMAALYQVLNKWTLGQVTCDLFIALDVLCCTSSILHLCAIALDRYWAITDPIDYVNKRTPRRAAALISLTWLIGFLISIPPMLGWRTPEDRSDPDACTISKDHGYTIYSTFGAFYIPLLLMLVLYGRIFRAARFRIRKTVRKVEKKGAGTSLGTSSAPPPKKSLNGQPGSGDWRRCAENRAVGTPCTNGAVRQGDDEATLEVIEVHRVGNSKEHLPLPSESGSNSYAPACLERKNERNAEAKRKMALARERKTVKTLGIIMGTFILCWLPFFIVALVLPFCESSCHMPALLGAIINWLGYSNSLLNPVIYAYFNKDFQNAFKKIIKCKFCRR
measurement_kind: Ki (µM)

O=C1CC(c2c[nH]c3ccccc23)C(=O)N1CCCCN1CCC(c2c[nH]c3ccccc23)CC1 (racemic); 0.0157

1: CCCN(C/C=C/I)C1CCc2cccc(O)c2C1 (configuration not stated)
2: COc1ccccc1N1CCN(CCCCn2nc3ccccc3n2)CC1
3: CCOc1nc2c(c(=O)n(C)c(=O)n2C)n1CCCN1CCN(c2ccccc2)CC1
Exercise: Sort ascending by Ki. Dear reader, please state the labels in the requested order.
Solution: 1, 2, 3
(1: 0.00038 µM, 2: 0.004 µM, 3: 1.3 µM)
